assay: RP, Thermo Scientific Acclaim RSLC 120 C18, 100 × 2.1 mm, 2.2 µm, 30 °C, 0.2 mL/min, estimated dead time 1.1 min; A: 90% water + 10% methanol + 0.01% formic acid + 5 mM ammonium formate, pH 3.61; B: methanol + 0.01% formic acid + 5 mM ammonium formate, pH 3.61; gradient (min/%B) 0/1 1/1 2/39 13/99.9 15/99.9 15.1/1 20.1/1; conditions: stereoisomer not certain
Overview of recorded LC retention time for various molecules
PROPERTY NAME: LC retention time (min)

[[record]]
molecule = "CC1(C)OC(c2ccco2)CN1C(=O)C(Cl)Cl (centres undefined)"
measure_unit = "min"
observed_value = 7.92

[[record]]
molecule = "CCN(CC)CCN1c2ccccc2Sc2ccccc21"
measure_unit = "min"
observed_value = 7.76

[[record]]
molecule = "Cc1nc(NS(=O)(=O)c2ccc(N)cc2)oc1C"
measure_unit = "min"
observed_value = 4.11

[[record]]
molecule = "COc1ccc2c(c1)c(CC(=O)O)c(C)n2C(=O)c1ccc(Cl)cc1"
measure_unit = "min"
observed_value = 10.3

[[record]]
molecule = "CCOCCOC(=O)C(C)Oc1ccc(Oc2ncc(C(F)(F)F)cc2Cl)cc1 (centres undefined)"
measure_unit = "min"
observed_value = 12.2

[[record]]
molecule = "COP(N)(=O)SC (centres undefined)"
measure_unit = "min"
observed_value = 2.76

[[record]]
molecule = "CON=C(C1=NOCCO1)c1ccccc1Oc1ncnc(Oc2ccccc2Cl)c1F"
measure_unit = "min"
observed_value = 9.95

[[record]]
molecule = "Cc1onc(-c2ccccc2)c1C(=O)NC1C(=O)N2C1SC(C)(C)C2C(=O)O (centres undefined)"
measure_unit = "min"
observed_value = 6.9

[[record]]
molecule = "CCC(CO)NCCNC(CC)CO (centres undefined)"
measure_unit = "min"
observed_value = 1.93

[[record]]
molecule = "COc1ccc2c(c1)[nH]c1c(C)nccc12"
measure_unit = "min"
observed_value = 5.34

[[record]]
molecule = "O=S(=O)(Oc1ccc(Cl)cc1)c1ccccc1"
measure_unit = "min"
observed_value = 10.1

[[record]]
molecule = "CN1CSC(=S)N(C)C1"
measure_unit = "min"
observed_value = 3.97

[[record]]
molecule = "CC(C)(ON=C(C(=O)NC1C(=O)N2C(C(=O)[O-])=C(C[n+]3ccccc3)CSC12)c1csc(N)n1)C(=O)O (centres undefined)"
measure_unit = "min"
observed_value = 3.38

[[record]]
molecule = "N#CN=C1SCCN1Cc1ccc(Cl)nc1"
measure_unit = "min"
observed_value = 5.62

[[record]]
molecule = "Cc1nnc2n1-c1ccc([N+](=O)[O-])cc1C(c1ccccc1Cl)=NC2"
measure_unit = "min"
observed_value = 7.24

[[record]]
molecule = "CON(C)C(=O)Nc1ccc(Cl)c(Cl)c1"
measure_unit = "min"
observed_value = 9.3

[[record]]
molecule = "O=c1[nH]cnc2[nH]ncc12"
measure_unit = "min"
observed_value = 2.19

[[record]]
molecule = "C[N+]1(CCC(O)(c2ccccc2)c2cccs2)CCOCC1 (centres undefined)"
measure_unit = "min"
observed_value = 5.06

[[record]]
molecule = "O=C(Oc1cccc2cccnc12)c1cn(Cc2ccc(F)cc2)c2ccccc12"
measure_unit = "min"
observed_value = 11.1


---

assay: RP, Thermo Scientific Acclaim RSLC 120 C18, 100 × 2.1 mm, 2.2 µm, 30 °C, 0.2 mL/min, estimated dead time 1.1 min; A: 90% water + 10% methanol + 0.01% formic acid + 5 mM ammonium formate, pH 3.61; B: methanol + 0.01% formic acid + 5 mM ammonium formate, pH 3.61; gradient (min/%B) 0/1 1/1 2/39 13/99.9 15/99.9 15.1/1 20.1/1; details: stereoisomer not certain
PROPERTY NAME: LC retention time (min)

[[record]]
molecule = "C=C1CC(=CC)C(=O)OC2CCN3CC=C(COC(=O)C1(C)O)C23 (centres undefined)"
observed_value = 4.17

[[record]]
molecule = "COC(=O)c1ccccc1C(=O)OC [Phthalate-Dimethyl]"
observed_value = 6.63

[[record]]
molecule = "Cc1ncc(CSSCc2cnc(C)c(O)c2CO)c(CO)c1O"
observed_value = 5.54

[[record]]
molecule = "CCCCC(O)(Cn1cncn1)c1ccc(Cl)cc1Cl (centres undefined)"
observed_value = 11.2

[[record]]
molecule = "COP(=S)(OC)Oc1ccc(S(C)(=O)=O)c(C)c1"
observed_value = 7.57

[[record]]
molecule = "O=C(Nc1cccc2cccnc12)c1nn(CCCCCF)c2ccccc12"
observed_value = 12.5

[[record]]
molecule = "CC(C)(C)c1ccc(C(O)CCCN2CCC(C(O)(c3ccccc3)c3ccccc3)CC2)cc1 (centres undefined)"
observed_value = 9.69

[[record]]
molecule = "Cc1ccc(N=CN(C)C=Nc2ccc(C)cc2C)c(C)c1"
observed_value = 13.3

[[record]]
molecule = "O=C(O)COCC[N+]1([O-])CCN(C(c2ccccc2)c2ccc(Cl)cc2)CC1 (centres undefined) [Cetirizine-N-Oxide]"
observed_value = 9.13

[[record]]
molecule = "CN1CCC23c4c5ccc(OC6OC(C(=O)O)C(O)C(O)C6O)c4OC2C(O)C=CC3C1C5 [Morphine-3-beta-D-glucuronide]"
observed_value = 1.63

[[record]]
molecule = "Cc1cccc(CC(C)N)c1 (centres undefined)"
observed_value = 5.17

[[record]]
molecule = "CC(C)OC(=O)c1cc(C(=O)OC(C)C)cc([N+](=O)[O-])c1"
observed_value = 12

[[record]]
molecule = "CCOP(=S)(OCC)Oc1cc(C)nc(N(CC)CC)n1"
observed_value = 12.3

[[record]]
molecule = "C1=Cc2ccccc2Nc2ccccc21"
observed_value = 10.1

[[record]]
molecule = "CCC(=O)OC1(C(=O)SCF)C(C)CC2C3CC(F)C4=CC(=O)C=CC4(C)C3(F)C(O)CC21C (centres undefined) [Fluticasone propionate]"
observed_value = 10.7

[[record]]
molecule = "COC(=O)C1=COC(C)C2CN3CCc4c([nH]c5ccccc45)C3CC12 (centres undefined)"
observed_value = 6.66

[[record]]
molecule = "O=S(=O)(Oc1ccc(Cl)cc1)c1ccc(Cl)cc1 [Chlorfenson.Ovex.chlorofenizon.ephirsulfonate.ovatron]"
observed_value = 11.1

[[record]]
molecule = "CCCCNC(=O)n1c(NC(=O)OC)nc2ccccc21"
observed_value = 5.46

[[record]]
molecule = "C#CCN1C(=O)COc2cc(F)c(N3C(=O)C4=C(CCCC4)C3=O)cc21"
observed_value = 8.73

[[record]]
molecule = "N#CC(CCN1CCC(C(N)=O)(N2CCCCC2)CC1)(c1ccccc1)c1ccccc1 [Piritramide]"
observed_value = 8.19

[[record]]
molecule = "CN1CCN(CCC=C2c3ccccc3Sc3ccc(S(=O)(=O)N(C)C)cc32)CC1"
observed_value = 8.38

[[record]]
molecule = "CCC1CN2CCC3(O)C(=Nc4cccc(OC)c43)C2CC1C(=COC)C(=O)OC (centres undefined) [Mitragynine-7-Hydroxy]"
observed_value = 5.95

[[record]]
molecule = "O=Cc1ccccc1Nc1ccccc1Cl"
observed_value = 11.4

[[record]]
molecule = "CCCCCC(=O)c1ccc(O)cc1O"
observed_value = 10.4

[[record]]
molecule = "CC(=O)OCC(=O)C12OC3(CCCC3)OC1CC1C3CCC4=CC(=O)C=CC4(C)C3(F)C(O)CC12C (centres undefined) [Amcinonide]"
observed_value = 11.2

[[record]]
molecule = "CCCSc1ccc2nc(NC(=O)OC)[nH]c2c1"
observed_value = 9.19

[[record]]
molecule = "COC(=O)c1ccccc1C(=O)c1ccc(OCCN2CCCCC2)cc1"
observed_value = 5.44

[[record]]
molecule = "CCN(Cc1ccc(Cl)nc1)C(=C[N+](=O)[O-])NC"
observed_value = 3.9

[[record]]
molecule = "CCOP(=S)(OCC)Oc1ccc2c(C)c(Cl)c(=O)oc2c1"
observed_value = 11.2

[[record]]
molecule = "CSc1nc(NC2CC2)nc(NC(C)(C)C)n1"
observed_value = 10.5

[[record]]
molecule = "CC(C)OC(=O)Nc1ccccc1"
observed_value = 8.11

[[record]]
molecule = "COC12CCC3(CC1C(C)(O)C(C)(C)C)C1Cc4ccc(O)c5c4C3(CCN1CC1CC1)C2O5 (centres undefined)"
observed_value = 7.96

[[record]]
molecule = "CCN(CC)CCCC(C)Nc1ccnc2cc(Cl)ccc12 (centres undefined)"
observed_value = 4.16

[[record]]
molecule = "CCCCCOC(=O)Nc1nc(=O)n(C2OC(C)C(O)C2O)cc1F (centres undefined)"
observed_value = 7.59


---

assay: RP, Thermo Scientific Acclaim RSLC 120 C18, 100 × 2.1 mm, 2.2 µm, 30 °C, 0.2 mL/min, estimated dead time 1.1 min; A: 90% water + 10% methanol + 0.01% formic acid + 5 mM ammonium formate, pH 3.61; B: methanol + 0.01% formic acid + 5 mM ammonium formate, pH 3.61; gradient (min/%B) 0/1 1/1 2/39 13/99.9 15/99.9 15.1/1 20.1/1; conditions: stereoisomer not certain
Tick true (1) if LC retention time is 8 min or greater. Tick false (0) if LC retention time is less than 8 min.

[[record]]
molecule = "CSc1ccc2c(c1)N(CCC1CCCCN1C)c1ccccc1S2 (stereo not drawn)"
discrete_label = "true (1)"

[[record]]
molecule = "CON(C)C(=O)Nc1ccc(Cl)cc1"
discrete_label = "false (0)"

[[record]]
molecule = "C#CC(C)OC(=O)Nc1cccc(Cl)c1 (stereo not drawn)"
discrete_label = "true (1)"

[[record]]
molecule = "Cc1ccc(C(CCN(C)C)c2ccccc2)cc1 (stereo not drawn)"
discrete_label = "false (0)"

[[record]]
molecule = "CCOC(=O)C1=NOC(c2ccccc2)(c2ccccc2)C1"
discrete_label = "true (1)"

[[record]]
molecule = "Cc1cc(C)n(-c2nc3ccccc3[nH]2)n1"
discrete_label = "true (1)"

[[record]]
molecule = "O=C(O)c1cc(Oc2ccc(Cl)cc2Cl)ccc1[N+](=O)[O-]"
discrete_label = "true (1)"

[[record]]
molecule = "CC=C1CC(C)C(O)(CO)C(=O)OCC2=CCN3CCC(OC1=O)C23 (stereo not drawn)"
discrete_label = "false (0)"

[[record]]
molecule = "CC(C)N(CCc1c[nH]c2cccc(O)c12)C(C)C"
discrete_label = "false (0)"

[[record]]
molecule = "O=C(Nc1ccc(Cl)cc1)Nc1ccc(Cl)c(Cl)c1"
discrete_label = "true (1)"

[[record]]
molecule = "CCON=C(OC(=O)c1ccccc1)c1c(OC)ccc(Cl)c1OC [Benzoximate]"
discrete_label = "true (1)"

[[record]]
molecule = "Cc1ccc(NC=O)c(C)c1 [N-2-4-Dimethylphenylformamide (DMF. Metabolite Amitraz)]"
discrete_label = "false (0)"

[[record]]
molecule = "CCC12CCCN3CCc4c(n(c5ccccc45)C(O)(C(=O)OC)C1)C32 (stereo not drawn)"
discrete_label = "false (0)"

[[record]]
molecule = "Cn1c(=O)c2c(ncn2CC(O)CO)n(C)c1=O (stereo not drawn)"
discrete_label = "false (0)"

[[record]]
molecule = "CN(C)CCc1c[nH]c2ccccc12"
discrete_label = "false (0)"

[[record]]
molecule = "CCCSC(=O)N(CCC)CCC [Vernolate]"
discrete_label = "true (1)"

[[record]]
molecule = "CCCNC1CCc2nc(N)sc2C1 (stereo not drawn) [Pramipexole]"
discrete_label = "false (0)"

[[record]]
molecule = "CC(C)(C)C(O)C(=Cc1ccc(Cl)cc1)n1cncn1 (stereo not drawn)"
discrete_label = "true (1)"

[[record]]
molecule = "O=P1(N(CCCl)CCCl)NCCCO1 (stereo not drawn) [Cyclophosphamide]"
discrete_label = "false (0)"

[[record]]
molecule = "CNC(C)C(=O)c1ccc(Cl)cc1 (stereo not drawn)"
discrete_label = "false (0)"

[[record]]
molecule = "CN(C)S(=O)(=O)Nc1ccccc1 [DMSA (N N-Dimethylaminosulfanilide)]"
discrete_label = "false (0)"

[[record]]
molecule = "CCCCCCCCCCCC(CC1OC(=O)C1CCCCCC)OC(=O)C(CC(C)C)NC=O (stereo not drawn)"
discrete_label = "true (1)"

[[record]]
molecule = "CCN1CCN(c2cc3c(cc2F)c(=O)c(C(=O)O)cn3C2CC2)CC1"
discrete_label = "false (0)"

[[record]]
molecule = "Cc1ccc(NS(=O)(=O)N(C)C)cc1 [DMST (N.N-Dimethyl-N'-p-tolylsulphamide)]"
discrete_label = "false (0)"

[[record]]
molecule = "O=S(=O)(O)c1nc2ccccc2s1"
discrete_label = "false (0)"

[[record]]
molecule = "O=[N+]([O-])c1cc(C(F)(F)F)c(Cl)c([N+](=O)[O-])c1Nc1ncc(C(F)(F)F)cc1Cl"
discrete_label = "true (1)"

[[record]]
molecule = "CC(C)Nc1nc(Cl)nc(NC(C)C)n1"
discrete_label = "true (1)"

[[record]]
molecule = "COC(=O)Nc1nc2ccc(C(=O)c3ccc(F)cc3)cc2[nH]1"
discrete_label = "true (1)"

[[record]]
molecule = "CCN(CC)C(=O)C1(c2ccccc2)CC1CN (stereo not drawn)"
discrete_label = "false (0)"

[[record]]
molecule = "CC12CCC3C(CCC4=CC(=O)CCC43C)C1CCC2=O (stereo not drawn)"
discrete_label = "true (1)"

[[record]]
molecule = "CN(C)NC(=O)CCC(=O)O [Daminozide]"
discrete_label = "false (0)"

[[record]]
molecule = "NNC(N)=O [Semicarbazide (SEM)]"
discrete_label = "false (0)"

[[record]]
molecule = "COP(=S)(OC)Oc1cc(Cl)c(Br)cc1Cl"
discrete_label = "true (1)"

[[record]]
molecule = "CCC1(c2ccc(N)cc2)CCC(=O)NC1=O (stereo not drawn) [Aminoglutethimide]"
discrete_label = "false (0)"

[[record]]
molecule = "COc1cc(NC(C)CCCN)c2ncccc2c1 (stereo not drawn)"
discrete_label = "false (0)"

[[record]]
molecule = "NC(=O)c1ccc(N)cc1 [4-Aminobenzamide]"
discrete_label = "false (0)"


This collection of values is drawn from the RepoRT retention time repository (doi:10.1021/acs.analchem.2c02893).
